ASSAYED_TARGET: KRAS^G12V-GPPNHP (Homo sapiens, UniProt P01116, G12V)
Sequence (P01116 1-166 isoform P01116-2 G12V): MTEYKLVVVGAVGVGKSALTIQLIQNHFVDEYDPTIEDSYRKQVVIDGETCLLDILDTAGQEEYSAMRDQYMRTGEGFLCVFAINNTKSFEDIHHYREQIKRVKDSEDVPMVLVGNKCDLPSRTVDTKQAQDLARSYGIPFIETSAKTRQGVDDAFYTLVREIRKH
ASSAY_METHOD_TEXT: SPR of compound on biotinylated RAS isoform (streptavidin chip)
TEST_CONDITIONS: KRAS
QUANTITY: Kd (µM)
Write the number in µM without appending the unit.

Challenge: For CN1Cc2ccccc2C2c3cccc4[nH]cc(c34)CC21 (stereo not shown) , what is its reported Kd?
Response given: 47

====

ASSAYED_TARGET: HRAS^G12V-GTP / scFv RASdm interaction (Homo sapiens, UniProt P01112, G12V)
Construct: made in house; host or cells: E. coli C41(DE3)
Sequence (P01112 whole entry G12V): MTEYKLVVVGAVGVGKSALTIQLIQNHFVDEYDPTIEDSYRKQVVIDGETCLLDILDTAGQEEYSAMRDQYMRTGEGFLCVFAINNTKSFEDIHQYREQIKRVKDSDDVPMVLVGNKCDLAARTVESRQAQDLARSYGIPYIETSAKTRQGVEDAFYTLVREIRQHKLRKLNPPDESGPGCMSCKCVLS
ASSAY_METHOD_TEXT: AlphaScreen of interaction between GST-HRAS^G12V-GTPγS and His-tagged scFv RASdm
Assay type: biochemical
TEST_CONDITIONS: dose-response Alpha assay
QUANTITY: pIC50
Scale: pIC50 equals -log10([C]), with [C] in mol/L.

Challenge: Find the recorded pIC50 belonging to CCCn1c(=O)c2[nH]c(C3CCCC3)nc2n(CCCOC(=O)c2ccc(S(=O)(=O)F)cc2)c1=O and report it.
Response given: 5.70

Challenge: # get_value(readout='pIC50', item= CN1Cc2ccccc2C2c3cccc4[nH]cc(c34)CC21 (centres unmarked) )
Response given: 5.22

====

ASSAYED_TARGET: KRAS, HRAS and NRAS-GTP proteins
ASSAY_METHOD_TEXT: SPR over the three RAS isoforms (average / overall)
TEST_CONDITIONS: read-out: average Kd; average over KRAS, HRAS and NRAS
QUANTITY: pKd
pKd here: minus log base 10 of the concentration, concentration in moles per litre.

Challenge: GET /values?readout=pKd&system=KRAS, HRAS and NRAS-GTP proteins&item= CN1Cc2ccccc2C2c3cccc4[nH]cc(c34)CC21 (stereo not shown)
Response given: 4.43

====

ASSAYED_TARGET: NRAS-GPPNHP (Homo sapiens)
Sequence (P01111 1-166): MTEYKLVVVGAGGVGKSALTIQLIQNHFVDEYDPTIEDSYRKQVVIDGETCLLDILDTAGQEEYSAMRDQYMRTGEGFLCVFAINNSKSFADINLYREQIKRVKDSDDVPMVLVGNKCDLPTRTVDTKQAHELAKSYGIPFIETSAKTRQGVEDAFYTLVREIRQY
ASSAY_METHOD_TEXT: SPR of compound on biotinylated RAS isoform (streptavidin chip)
TEST_CONDITIONS: NRAS
QUANTITY: Kd (µM)
Give the value in µM but do not write µM after it.

Challenge: Look up Kd for this compound: CN1Cc2ccccc2C2c3cccc4[nH]cc(c34)CC21 (stereo not shown)
Response given: 35
